These data points were gathered from paper PMC7265341.

TARGET_DESC: CDK3/Cyclin E1 (Homo sapiens)
Sequence (Q00526 whole entry): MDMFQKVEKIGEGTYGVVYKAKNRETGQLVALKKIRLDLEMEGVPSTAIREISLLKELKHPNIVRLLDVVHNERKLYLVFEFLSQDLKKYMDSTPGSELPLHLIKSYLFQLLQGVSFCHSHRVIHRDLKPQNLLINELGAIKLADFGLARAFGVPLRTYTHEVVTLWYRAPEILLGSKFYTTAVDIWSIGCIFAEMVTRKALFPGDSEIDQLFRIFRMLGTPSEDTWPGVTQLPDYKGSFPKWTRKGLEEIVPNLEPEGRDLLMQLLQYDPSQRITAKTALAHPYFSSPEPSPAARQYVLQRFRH
Sequence (P24864 whole entry partner): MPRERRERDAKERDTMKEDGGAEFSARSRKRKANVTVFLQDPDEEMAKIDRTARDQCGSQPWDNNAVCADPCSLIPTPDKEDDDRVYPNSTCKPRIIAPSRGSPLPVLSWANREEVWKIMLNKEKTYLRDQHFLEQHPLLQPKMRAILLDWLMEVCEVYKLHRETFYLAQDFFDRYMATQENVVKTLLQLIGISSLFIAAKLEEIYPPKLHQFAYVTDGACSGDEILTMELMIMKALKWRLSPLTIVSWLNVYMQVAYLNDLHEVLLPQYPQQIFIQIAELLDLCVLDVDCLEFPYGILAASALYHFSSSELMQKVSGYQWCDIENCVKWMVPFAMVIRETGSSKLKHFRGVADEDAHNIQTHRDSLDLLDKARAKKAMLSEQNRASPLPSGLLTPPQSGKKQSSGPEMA
ASSAY_EXPLANATION: NanoBRET live-cell target engagement, CDK3-NanoLuc/Cyclin E1 in HEK-293
Format: binding
MEASUREMENT_SETUP: CDK3/E1; 10µM; average of replicates; read-out: Inhibition at 10µM (%) Average
So basically: inhibition at 10 µM at 60% or higher? That is criterion met. Lower than 60%? That is criterion not met.

compound="COc1cc(F)ccc1-c1cc(Nc2cc(CS(C)(=N)=O)ccn2)ncc1F (stereo not drawn)" assigned_label="criterion met"
compound=CCCCOc1c(C(=O)c2c(F)cc(C)cc2F)c[nH]c2nncc1-2 assigned_label="criterion met"

Hi, just wondering whether CCN1CCN(Cc2ccc(NC(=O)Nc3ccc(Oc4cc(NC)ncn4)cc3)cc2C(F)(F)F)CC1 shows inhibition at 10 µM of 60% or higher.
criterion met

Another compound to check: COc1cc(F)ccc1-c1ncnc(Nc2cccc(C[S@](C)(=N)=O)c2)n1
criterion not met

What would you report for CCN1CCN(Cc2ccc(Nc3ncc(F)c(-c4cc(F)c5nc(C)n(C(C)C)c5c4)n3)nc2)CC1 ?
criterion met
